Consider the following sequences and their measured protease stability score readings.
# test: protease stability score; higher = more stable; yeast display proteolysis, trypsin and chymotrypsin;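 also: log10 excess protease needed over predicted unfolded state with 0 meaning unfolded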
Response field accepts a number only; no unit should be typed.

>>> numeric_value("DEDDVRRVAEQIVQALEKGDEQRMMELADPNAKARVGEKDYHGREDLHKIVKELKDDFDHARVESVEVDGDKVVIHMVVKSNGKDRRMIIRFRVHNGKVTEMEFRTG")
1.75
>>> numeric_value("DEEDHQKIAHSLAEVLKTGDPDRMMELADENVKFQVGDKTYHGREELKKYMEQLHRHADHIEIDHISVQGDKIRIHARMNVNGREHTFVIQVEIHNGRAKSITFQYG")
1.53
>>> numeric_value("DEELEHILKDILKAQKHNDEKRLEELFDPNVHFEVGDKRYNGMSRFAHELAQTQKEIKWRVQWQTWDVQGNKATMQAEAVFEVNGRPFRYTYQARVQVKNGKVKRHEIHVDPQQLRDQNS")
-0.087
>>> numeric_value("DEEERAKNFMKQLIDVAQRGDKENAKRLFDENARVEVGDKTYRGRRRVATFLMELSERADHMEMRIQSFDISGDKFDLVLKVERHHNGRQQSFQLKVVATVRNGNLVIVHVRMG")
2.49
>>> numeric_value("DDTAAEVLKEQLDVLKQGDPDRVNQLVDPNAKRHVGDKNYRGMNSMADEDAQKMRNSRIKYTHWEQERSGDKVRVVVVYIEDHNGEPDTHRREFVFKASNGRFHQLNQDDDQ")
-0.232

Let us move to another entry and its protease stability score.
State the recorded protease stability score for this entry: DDEDEHKFATRMAEILHTGDPDRFQEQVDENVEARYGDKEYHGDEQAKTAFKHVVERVDTVEIKHMDAKNGKVSVHFVLDYDGEKQHVTLNVELHNGKAQRVEFQTQ
0.144

====

# test: protease stability score; higher = more stable; yeast display proteolysis, trypsin and chymotrypsin;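 also: log10 excess protease needed over predicted unfolded state with 0 meaning unfolded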
measure: protease stability score
Lab note: jot down the number only; don't add units.

Solved cases below.
>>> numeric_value("DTRKVQEMAKQFVQAMKDNDRTTLEKLADEDARIRVGEKELHGRDQVATMVAHMAKNIDHIRVKKLSVDENHVNLVFEVEHNGRRVRIILRITARNGRIKHIQVDPDRVRELEG")
1.01
>>> numeric_value("DESQLELVKELLDVLQTGNPDEARQLVDKDVNIRIGDRVIHGREQLQSHVEKVKREQQVHVNITDMKVKGDKIKVVAQYKNHHNGQPSHNKMVLDAEVNGDKIHRMEYKSQS")
-0.453

Field: next sequence
Give its protease stability score value. Item: DEDHNRRLAHTIVEILRTGDPDKMNEQLDPNARAHYGDHEIHGRENVAKMVKELHDRVDHFTVKTYDADGDHITIELVMKVNGRNVEMTVVVRVRNGRLVDLRYRYTSEEQEKTEKE
2.12

====

# test: protease stability score; higher = more stable; yeast display proteolysis, trypsin and chymotrypsin;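 also: log10 excess protease needed over predicted unfolded state with 0 meaning unfolded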
measure: protease stability score
Give the figure by itself; no unit, no explanation.

Check out these entries, answers already filled in.
>>> numeric_value("DEDLLKQADRWVKNLTRGNFKDLQKLFPPDATVQYGDNHIHGMEKISHEWKKEQEEMRIRVDRVQNEHQGEKAVVDLHYKVTHNGKPEENVVILFIEKHNGHMIFMKIQKTG")
0.739
>>> numeric_value("DEDKARRLAEKLFEYMMKGKKDEAKKFLDPDVRYEYVDETVEGPKVAEHVVRKIRKLGMKVETKEMEIRGDKARAVFVYRNGDNQVETTVEAQYEGDKLKEVRVELTDEVKKQVTQG")
0.804

As a next step, examine the sequence that follows.
Report protease stability score for DEKDKDVADELRKAYHTGDHNRLREMVDKDVKFQVGDQDYHGRETFMKLNHTERNEIRIEIQSIRVHVHNGRVTVKQVVVREHNGRPTRMQQVLTIDAHNGKIKKMFIKDDQ please.
0.069

====

# test: protease stability score; higher = more stable; yeast display proteolysis, trypsin and chymotrypsin;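 also: log10 excess protease needed over predicted unfolded state with 0 meaning unfolded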
Quick reference: protease stability score of the listed items.
Provide a numeric answer; units are not to be included.

>>> numeric_value("DETEKAKTFMDELRKVLQTGDEEQISRNMDPNARLNVGDKTIHGRERLAKEMSDEVKRADHIDIKVKSISVHNGKVRVDFFFTLEYNGQHRRTRRIMHADISDGQIKIKQIHDN")
1.4
>>> numeric_value("DREEHASQLFRDMQEVYHNNDPSKFKHLVDENVTRDVGDKTVHGQDEMAREMEKEARRVDKVRFDVRDVKSNNGRIKVRFVVTHNENGRERSSDVTVRFQVSNGRLVIESQTET")
-0.206
>>> numeric_value("DEDAQKQVEKMLQAVREGDDRQIKRLFDPNAEINVGDKHVTGREQATKEMSKRKKEMDIDIKIEEVQVKGDRVELKAVVLENKNGDPQTFHVRAVYHAHNGKIRTNNVEKDG")
-0.074
>>> numeric_value("DEKDVRILEEYVNAWNTNDPDTLNNLADPNARFKIGNKEFQGRDTLDRLAKQLRKEMRVTVHDVHAKDDDGRVDAKVDAVMHYNGKPNRDTFHFDAKVHNGRIRELNVQFDEKRKKKVDS")
-0.065
>>> numeric_value("DESLAEQWMRDIKSNNEERFRRYVDPNVHADVGNFKVHGRHDLVEQLRKLLEQVDHLDYHSVSADGDDVTVDVVIDVNGNTVRYELIVRFHNGQAHSLQMHVTNPDQDRQLHEVVK")
-0.013
>>> numeric_value("DDDVMRRLLKWVKNGDWDVLAENADPNVRVNIGDFRVHGREQFKEWADKLHKKVDHFHYRDVKVNGDRVRFDFIEHFNGKTIDMDMTARAHNGRITSLDVNVRSEDDKHAFKELVS")
1.1

What value of measured protease stability score is listed for DHERVKDHATDLAKILRQNNERELKKLADKDVHFQIGDKTYHGREKFEEWVHELINTVDHIRITDFDVDGDRVRIDADFDINGKTVRVVIVVKLKNGKIKSQKVQFRDKDLQRKFNS ?
-0.152

Same read-out for DEDDVNKAHNILKHGDWEKFASQADENVRIHIGNKEVNGRERASEVLKLIRDRVDSEEIKRMSFHGDKVVVDAEQVVNGKKVRFVIRVKAHNGRIKQMDFQFRNEEDKKKFDEAVN ?
0.477

Now the sequence DHDALERFQEFLENLKSGNPHDLHNMLDKNASLQVGDKTVTGRDQIVDHWRRQREEWEVTYRSVDLKVSGDTVKADFDFQVDINGQPNRVSRQAHVKISNGKLKTLQYRVSEDVKRNIEG
-0.254

How about DEEHQKIAKEALEQIQTGDEDEIKRQFDPNAKLQVGDQSVHGRETAAKFVRDRRRQMRIHLDDVDVKAKNGHVRLMMDVEVDHNGHPTKHRQVMIVKIHNGQIKKMTVNERD ?
-0.028

Follow-up entry: DEEEIHTMLEVLKQNDEQTLQDLFDENAKISVGEFRFHGRDEAIEFAREFNKAVDHVHYKRVDVQGNRARVKMQLNVNGKNIDVVVKVEIHNGRIKSLRIDVRDEQLRRDLEEAFR
1.71

Repeat for the following sequence: DDEERHKDAQKAMHLYQRGNPDEMDRLMDPNVKVRVGDETYHGREQANRAFKKIRDRVDHINVKSVSVHGNRINIVAEVNINGRNDILRVIIDYHNGRARRVIITHK
0.204

Same read-out for DEEALKKMVDTLLKYVEQGNIKDIQQILKENVEFKLGDTEYKGVEHAKRDVKKLKDAGVEVHVKKTEVEGDTAHVETVWHAGDYEMHVTVQYVVRGDKVEKVEVRWSEEAKKALKVG ?
0.24

Also DEERLAKEVNDQYQHIMDTGDPDQARKLFDENARVDIGDKQYHGREEAVEAFQQRMNRVDHIDIKIDEVKVRNGEIDVKFEINQNSNGKNVHRNIRFTMRVNGDKYAIVDMHVQ , if possible.
0.367

Please answer likewise for DEDEATKVATNMQEILETGNPDEAAKLADKDVRVVVGDKDVHGSENLKDMMRELRERADHLRVVDMHSHGEKFVLLVIIEHNGRRHQVNIVMTIDNGRIKSLSITSG
1.87

Then what about the sequence DEETKARHQIKHMNKLAQTGQLHEVAKQADPNAEFRIGDKTLRGRDNFVRQVKETADTVDHFDVQVRRVHVKGDKAKANIDLRFDVNGKQERRTLRFSAVMDNGEVVVRFMQIN ?
-0.03

Let us now turn to DEDKNKKFADKVVRALEQNNEEEMNELFPPDARVEVGDKQIHGREEIQKYMQKIRDQVDHVEVKSMEVDGDKITVHVTVHHNGTSRTVVFIFHVRNGRLTEMKVKTG
0.04

Try this sequence too: DEERQQKVADDLATIMTNGNPDQMLELADKDVKAKYGDTEIHGREKVREYWKTIRDQADHIHIDTFKAENGQVDIQAHAKFNGKDYKFNLRIEFDNGRIKSIVVQEQ
0.278

Field entry: DEEDQKVFERILEIFKTGDEEEAQKNMDKDVRVQYGDKQLHGRENIARELQTKMNELRYKFSIESVENHNGQVRVNFQFVENHNGRPSRKKAKLVVHFRNGKLRNFEQQDVS
0.534

Also DKEVEEVWKKMLTAQKYGDEKRYKDLADPNVKYNIGDKKIDGRDTYAEEMKKRRDEIRLRMQITDVKQQGDKLHVRFKIEAEINGKPISEDVTAVLVNHNGKVKHYSMHVPHEFFKKQQK ?
0.213

Now give it for DEEKLEELAEEILQMLQTGDPDQARRMADEDVRAEYGDKQYTGKERLVEVVRKLKDRADHARINSFEVEGENIVADFVMVVDGQERRVRMTARVENGRIKEVRVKTS too.
0.96

Same lookup for EKEQKERLEEAQHARESGDTERLKDLFDENVQVEVGDKRVNGMEKFVKDEVKKQRDLRISVTYTEMRNDPNHVDITVEVVEDKNGEPQRRVLEINIEYENGRARMMRVRRVQ , please.
1.1

Data origin: the NTF2 design screens of Basanta et al. (2020)
